biological target: DRB1*0701 (DR7); assay: binding to purified HLA
measured-metric: IC50 (nM)

# binder, units-text, meas-value
records = [
    ("SYPARYANAMAVGAT [B. lentus .160]", "nM", 138),
]

P: GSISYPARYANAMAV [B. lentus 157]
Q: GTVAALNNSIGVLGV [BPN' Y217L .70]
R: NGIEWAIANNMDVIN [BPN' Y217L .109]
Put the entries in order of IC50, starting with the largest number. Field: ranking. Enter the labels in the order requested.
P, Q, R
(P: 724 nM, Q: 154 nM, R: 58 nM)
